Test system: Escherichia coli TOP10
TEST_NAME: shrunken log2 fold change of peptide-encoding DNA abundance (4.5 h post-induction vs induction); higher = less antimicrobial activity (less host growth inhibition)
ASSAY_CONDITIONS: time post-induction: 4.5 h; library: site-saturation at positions 5, 18, 19, 20
Kindly state shrunken log2 fold change for each of the entries shown.
Response field accepts a number only; no unit should be typed.

The measured shrunken log2 fold change associated with RRIRIRPPRLPRPRPRPISNPRP reads -0.000216

The measured shrunken log2 fold change associated with RRIRVRPPRLPRPRPRPWTHPRP reads -0.104

The measured shrunken log2 fold change associated with RRIRCRPPRLPRPRPRPGFFPRP reads 0.0565

The measured shrunken log2 fold change associated with RRIRIRPPRLPRPRPRPWAYPRP reads 0.0382

The measured shrunken log2 fold change associated with RRIRERPPRLPRPRPRPWSFPRP reads -0.0191

The measured shrunken log2 fold change associated with RRIRRRPPRLPRPRPRPWTIPRP reads -0.189

The measured shrunken log2 fold change associated with RRIRGRPPRLPRPRPRPDNHPRP reads 0.125

The measured shrunken log2 fold change associated with RRIRIRPPRLPRPRPRPVYFPRP reads -0.807

The measured shrunken log2 fold change associated with RRIRDRPPRLPRPRPRPWWHPRP reads 0.133

The measured shrunken log2 fold change associated with RRIRQRPPRLPRPRPRPLIDPRP reads -0.206

The measured shrunken log2 fold change associated with RRIRLRPPRLPRPRPRPTMFPRP reads -0.0861

The measured shrunken log2 fold change associated with RRIRFRPPRLPRPRPRPTNSPRP reads -0.271

The measured shrunken log2 fold change associated with RRIRWRPPRLPRPRPRPFTIPRP reads -0.212

The measured shrunken log2 fold change associated with RRIRTRPPRLPRPRPRPEAQPRP reads 0.00719

The measured shrunken log2 fold change associated with RRIRNRPPRLPRPRPRPCENPRP reads -0.0018

The measured shrunken log2 fold change associated with RRIRWRPPRLPRPRPRPIYEPRP reads -0.355

The measured shrunken log2 fold change associated with RRIRPRPPRLPRPRPRPRGEPRP reads 0.646

The measured shrunken log2 fold change associated with RRIRCRPPRLPRPRPRPPRKPRP reads 1.01

The measured shrunken log2 fold change associated with RRIRERPPRLPRPRPRPAEKPRP reads -0.0431

The measured shrunken log2 fold change associated with RRIRCRPPRLPRPRPRPIPYPRP reads -0.0796

The measured shrunken log2 fold change associated with RRIRDRPPRLPRPRPRPDVKPRP reads -0.00748

The measured shrunken log2 fold change associated with RRIRYRPPRLPRPRPRPIAHPRP reads -0.901

The measured shrunken log2 fold change associated with RRIRERPPRLPRPRPRPNSMPRP reads -0.864

The measured shrunken log2 fold change associated with RRIRFRPPRLPRPRPRPTTLPRP reads -0.0787

The measured shrunken log2 fold change associated with RRIRWRPPRLPRPRPRPWQNPRP reads -0.159

The measured shrunken log2 fold change associated with RRIRNRPPRLPRPRPRPDCTPRP reads 0.0531

The measured shrunken log2 fold change associated with RRIRQRPPRLPRPRPRPYYWPRP reads 0.0316

The measured shrunken log2 fold change associated with RRIRPRPPRLPRPRPRPWACPRP reads -0.00713

The measured shrunken log2 fold change associated with RRIRDRPPRLPRPRPRPPEPPRP reads 0.84

The measured shrunken log2 fold change associated with RRIRWRPPRLPRPRPRPMLMPRP reads -0.0339

The measured shrunken log2 fold change associated with RRIRNRPPRLPRPRPRPVQRPRP reads -0.186

The measured shrunken log2 fold change associated with RRIRVRPPRLPRPRPRPEDQPRP reads 0.0356

The measured shrunken log2 fold change associated with RRIRRRPPRLPRPRPRPCQFPRP reads -0.0684

The measured shrunken log2 fold change associated with RRIRARPPRLPRPRPRPCDAPRP reads 0.344

---

Kindly state shrunken log2 fold change for each of the entries shown.
Tested on: Escherichia coli TOP10
TEST_NAME: shrunken log2 fold change of peptide-encoding DNA abundance (4.5 h post-induction vs induction); higher = less antimicrobial activity (less host growth inhibition)
ASSAY_CONDITIONS: time post-induction: 4.5 h; library: site-saturation at positions 5, 18, 19, 20
Response field accepts a number only; no unit should be typed.

The measured shrunken log2 fold change that RRIRFRPPRLPRPRPRPGKHPRP showed for Escherichia coli TOP10 is -0.294

The measured shrunken log2 fold change that RRIRVRPPRLPRPRPRPTAEPRP showed for Escherichia coli TOP10 is 0.0994

The measured shrunken log2 fold change that RRIRPRPPRLPRPRPRPQFPPRP showed for Escherichia coli TOP10 is 0.0341

The measured shrunken log2 fold change that RRIRNRPPRLPRPRPRPTTEPRP showed for Escherichia coli TOP10 is -0.257

The measured shrunken log2 fold change that RRIRMRPPRLPRPRPRPNQNPRP showed for Escherichia coli TOP10 is 0.079

The measured shrunken log2 fold change that RRIRNRPPRLPRPRPRPQLNPRP showed for Escherichia coli TOP10 is -0.539

The measured shrunken log2 fold change that RRIRVRPPRLPRPRPRPEMCPRP showed for Escherichia coli TOP10 is -0.0885

The measured shrunken log2 fold change that RRIRMRPPRLPRPRPRPCKMPRP showed for Escherichia coli TOP10 is 0.0367

The measured shrunken log2 fold change that RRIRTRPPRLPRPRPRPPTLPRP showed for Escherichia coli TOP10 is 0.0694

The measured shrunken log2 fold change that RRIRCRPPRLPRPRPRPTRCPRP showed for Escherichia coli TOP10 is 0.236

The measured shrunken log2 fold change that RRIRNRPPRLPRPRPRPAYMPRP showed for Escherichia coli TOP10 is -0.119

The measured shrunken log2 fold change that RRIRKRPPRLPRPRPRPNFIPRP showed for Escherichia coli TOP10 is -0.144

The measured shrunken log2 fold change that RRIRPRPPRLPRPRPRPFSCPRP showed for Escherichia coli TOP10 is -0.106

The measured shrunken log2 fold change that RRIRVRPPRLPRPRPRPEFAPRP showed for Escherichia coli TOP10 is 0.169

---

Test system: Escherichia coli TOP10
TEST_NAME: shrunken log2 fold change of peptide-encoding DNA abundance (4.5 h post-induction vs induction); higher = less antimicrobial activity (less host growth inhibition)
ASSAY_CONDITIONS: time post-induction: 4.5 h; library: site-saturation at positions 5, 18, 19, 20
I'd appreciate it if you could label each record using shrunken log2 fold change and these ranges: bottom: < -0.01; middle: ≥ -0.01 and < 0.08; top: ≥ 0.08

Prompt line: Pick a category. Item: RRIRCRPPRLPRPRPRPTCHPRP
Response line: middle

Prompt line: Pick a category. Item: RRIRNRPPRLPRPRPRPDAWPRP
Response line: top

Prompt line: Pick a category. Item: RRIRWRPPRLPRPRPRPKFGPRP
Response line: top

Prompt line: Pick a category. Item: RRIRCRPPRLPRPRPRPRQAPRP
Response line: middle

Prompt line: Pick a category. Item: RRIRDRPPRLPRPRPRPPVTPRP
Response line: bottom

Prompt line: Pick a category. Item: RRIRTRPPRLPRPRPRPDYTPRP
Response line: bottom

Prompt line: Pick a category. Item: RRIRGRPPRLPRPRPRPYQWPRP
Response line: middle

Prompt line: Pick a category. Item: RRIRCRPPRLPRPRPRPVNKPRP
Response line: bottom

Prompt line: Pick a category. Item: RRIRLRPPRLPRPRPRPVLKPRP
Response line: top

Prompt line: Pick a category. Item: RRIRWRPPRLPRPRPRPYMGPRP
Response line: bottom

Prompt line: Pick a category. Item: RRIRPRPPRLPRPRPRPPTDPRP
Response line: top

Prompt line: Pick a category. Item: RRIRRRPPRLPRPRPRPTPLPRP
Response line: top

Prompt line: Pick a category. Item: RRIRQRPPRLPRPRPRPTVNPRP
Response line: bottom

Prompt line: Pick a category. Item: RRIRTRPPRLPRPRPRPKRIPRP
Response line: middle

Prompt line: Pick a category. Item: RRIRERPPRLPRPRPRPAGMPRP
Response line: bottom

---

Test system: Escherichia coli TOP10;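 note: peptides expressed intracellularly from a pBAD plasmid library in pooled LB shake-flask culture, induced with 0.3% L-arabinose, DNA abundance read by NGS, three biological replicates, DESeq2 with apeglm shrinkage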
TEST_NAME: shrunken log2 fold change of peptide-encoding DNA abundance (4.5 h post-induction vs induction); higher = less antimicrobial activity (less host growth inhibition)
ASSAY_CONDITIONS: time post-induction: 4.5 h; library: site-saturation at positions 5, 18, 19, 20
I'd appreciate it if you could label each record using shrunken log2 fold change and these ranges: low value = under -0.05, medium value = from -0.05 up to 0.04, high value = 0.04 and over

Prompt line: Pick a category. Item: RRIRFRPPRLPRPRPRPRTIPRP
Response line: low value

Prompt line: Pick a category. Item: RRIRDRPPRLPRPRPRPQYDPRP
Response line: medium value

Prompt line: Pick a category. Item: RRIRSRPPRLPRPRPRPEIRPRP
Response line: low value

Prompt line: Pick a category. Item: RRIRGRPPRLPRPRPRPCNNPRP
Response line: medium value

Prompt line: Pick a category. Item: RRIRGRPPRLPRPRPRPCSAPRP
Response line: high value

Prompt line: Pick a category. Item: RRIRFRPPRLPRPRPRPCNYPRP
Response line: low value

Prompt line: Pick a category. Item: RRIRYRPPRLPRPRPRPNTEPRP
Response line: medium value

Prompt line: Pick a category. Item: RRIRWRPPRLPRPRPRPCHKPRP
Response line: medium value

Prompt line: Pick a category. Item: RRIRFRPPRLPRPRPRPLDTPRP
Response line: high value

Prompt line: Pick a category. Item: RRIRYRPPRLPRPRPRPMTEPRP
Response line: medium value

Prompt line: Pick a category. Item: RRIRFRPPRLPRPRPRPLPKPRP
Response line: high value

Prompt line: Pick a category. Item: RRIRCRPPRLPRPRPRPQQAPRP
Response line: high value
